Cited source for all entries: patent US7947695B2

# measurement-target: CDK4/cyclinD1 enzyme complex (Homo sapiens, UniProt P11802)
# Sequence (P11802 whole entry): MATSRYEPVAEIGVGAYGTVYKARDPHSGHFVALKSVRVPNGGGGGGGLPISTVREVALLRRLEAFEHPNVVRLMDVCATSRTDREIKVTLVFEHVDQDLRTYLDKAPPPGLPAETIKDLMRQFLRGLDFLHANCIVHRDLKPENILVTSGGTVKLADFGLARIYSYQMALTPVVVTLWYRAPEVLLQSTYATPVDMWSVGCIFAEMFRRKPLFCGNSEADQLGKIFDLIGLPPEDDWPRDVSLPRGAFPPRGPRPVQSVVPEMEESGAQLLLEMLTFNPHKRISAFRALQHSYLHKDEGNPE
# Sequence (P24385 whole entry partner): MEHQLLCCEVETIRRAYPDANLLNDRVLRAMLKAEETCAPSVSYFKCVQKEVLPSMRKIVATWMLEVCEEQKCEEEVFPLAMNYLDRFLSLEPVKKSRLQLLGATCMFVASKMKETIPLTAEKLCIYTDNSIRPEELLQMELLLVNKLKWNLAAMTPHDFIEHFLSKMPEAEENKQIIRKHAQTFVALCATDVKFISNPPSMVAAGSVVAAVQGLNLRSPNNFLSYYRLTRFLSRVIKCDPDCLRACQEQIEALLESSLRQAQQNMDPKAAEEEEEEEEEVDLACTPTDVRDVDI
# assay-text: In vitro scintillation proximity assay (SPA) for CDK4 inhibitory activity
# Format: biochemical
# measurement-setup: GST-pRb substrate, 33P-ATP, 25° C. 30 minutes, read-out: cdk4 SPA see C.4 (pIC50) (converted)
outcome-measure: IC50 (nM)

Example entries begin here.
* CN1CCN(c2ccc(Nc3ncc4ncn(C5CCCCC5)c4n3)cc2)CC1 [Co. No. 5] | 3160
* CN1CCN(c2ccc(Nc3ncc4cnn(-c5ccccc5)c4n3)cc2)CC1 [compound 14] | 3.98
* CN1CCN(c2ccc(Nc3ncc4c(=O)[nH]n(C5CCCCC5)c4n3)cc2)CC1 [Co. No. 7] | 158
* OCCCC1CCN(c2ccc(Nc3ncc4cnn(C5CCCC5)c4n3)cc2)CC1 [compound 13] | 50.1
* CN1CCN(c2ccc(Nc3ncc4cnn(C5CCCC5)c4n3)cc2)CC1 [compound 11] | 6.31
* CN1CCN(c2ccc(Nc3ncc4[nH]c(=O)n(C5CCCCC5)c4n3)cc2)CC1 [Co. No. 6] | 100
* O=c1[nH]c2cnc(Nc3ccc(N4CCOCC4)cc3)nc2n1C1CCCCC1 [compound 78] | 631

1: c1cc(N2CCOCC2)ccc1Nc1ncc2cnn(C3CCCCC3)c2n1 [compound 12]
2: CN1CCN(c2ccc(Nc3ncc4cnn(C5CCCCC5)c4n3)cc2)CC1 [Co. No. 1]
3: CN1CCN(c2ccc(Nc3ncc4c(=O)[nH]n(C5CCCC5)c4n3)cc2)CC1 [compound 91]
Please list the entries, largest IC50 first. Labels, ranked as asked.
3, 1, 2

* * *

# measurement-target: UniProt:Q96GD4
# Sequence (Q96GD4 whole entry): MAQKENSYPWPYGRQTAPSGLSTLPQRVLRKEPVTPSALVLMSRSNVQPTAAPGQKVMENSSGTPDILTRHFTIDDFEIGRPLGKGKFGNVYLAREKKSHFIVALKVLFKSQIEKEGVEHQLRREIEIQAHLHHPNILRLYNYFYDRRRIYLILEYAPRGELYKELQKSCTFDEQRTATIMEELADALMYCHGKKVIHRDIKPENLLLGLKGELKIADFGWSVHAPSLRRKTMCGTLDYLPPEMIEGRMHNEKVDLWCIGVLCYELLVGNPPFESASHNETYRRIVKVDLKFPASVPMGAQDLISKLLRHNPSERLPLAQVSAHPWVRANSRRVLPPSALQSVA
# assay-text: In vitro filtration assay for AURORA B inhibitory activity
# Format: biochemical
# measurement-setup: peptide (C(LRRWSLG)×4), 1 μM unlabeled ATP, 25° C. 40 minutes, read-out: Aurora B see C.3 (pIC50) (converted)
outcome-measure: IC50

Consider the reported IC50 for these molecules:
• c1cc(N2CCOCC2)ccc1Nc1ncc2cnn(C3CCCCC3)c2n1 = 0.251 µM
• CN1CCN(C(=O)c2ccc(Nc3ncc4[nH]c(=O)n(C5CCCCC5)c4n3)cc2)CC1 = > 10 µM
• CN1CCN(c2ccc(Nc3ncc4c(=O)[nH]n(C5CCCC5)c4n3)cc2)CC1 = > 10 µM

Given the molecule `O=c1[nH]n(C2CCCC2)c2nc(Nc3ccc(N4CCC(CCCO)CC4)cc3)ncc12` and test system UniProt:Q96GD4, the measured IC50 is > 10 µM

* * *

# measurement-target: UniProtKB O14965
# Sequence (O14965 whole entry): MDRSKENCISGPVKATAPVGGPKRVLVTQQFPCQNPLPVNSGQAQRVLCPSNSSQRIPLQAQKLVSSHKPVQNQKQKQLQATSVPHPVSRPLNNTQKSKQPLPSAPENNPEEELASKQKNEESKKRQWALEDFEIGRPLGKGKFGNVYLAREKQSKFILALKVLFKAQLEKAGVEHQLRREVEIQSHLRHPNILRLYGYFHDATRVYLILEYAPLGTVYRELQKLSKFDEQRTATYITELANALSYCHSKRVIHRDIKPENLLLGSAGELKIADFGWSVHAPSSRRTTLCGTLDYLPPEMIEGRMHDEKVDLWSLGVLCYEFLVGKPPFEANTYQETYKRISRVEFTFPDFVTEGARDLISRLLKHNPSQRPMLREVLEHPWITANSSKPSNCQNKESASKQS
# assay-text: In vitro filtration assay for AURORA A inhibitory activity
# Format: biochemical
# measurement-setup: Kemptide substrate, 1 μM unlabeled ATP, 25° C. 40 minutes, read-out: Aurora A see C.2 (pIC50) (converted)
outcome-measure: IC50 (nM)

// known answers, use as guide
- c1cc(N2CCOCC2)ncc1Nc1ncc2cnn(C3CCCCC3)c2n1 [compound 17]: 794
- c1cc(Nc2ncc3cnn([C@H]4C[C@@H]5CC[C@H]4C5)c3n2)ccc1CNCCN1CCOCC1 [compound 65]: 501
- c1cc(N2CCOCC2)ccc1Nc1ncc2cnn(C3CCCCC3)c2n1 [compound 12]: 63.1
- CN1CCC(NCc2ccc(Nc3ncc4cnn(C5CCCCC5)c4n3)cc2)CC1 [Co. No. 60]: 1580
- CN1CCN(c2ccc(Nc3ncc4cnn(C5CCOCC5)c4n3)cc2)CC1 [compound 27]: 501

P: COCCCNC1CCN(Cc2ccc(Nc3ncc4cnn(C5CCCCC5)c4n3)cc2)CC1 [compound 47]
Q: CN1CCN(c2ccc(Nc3ncc4[nH]c(=O)n([C@H]5C[C@@H]6CC[C@H]5C6)c4n3)cc2)CC1 [compound 88]
Would you kindly point out which of P and Q has the smaller IC50 figure? Lab note: record the label of whichever item you select.
P
(P: 316 nM, Q: 1580 nM)
